Origin of measurements: PubChem BioAssay

test_description: probe aShh binding to arrayed compounds – biochemical, biotinylated probe, 635/667 nm fluorescence, primary screen (AID 1114);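 further: probe is biotin-labelled aShh protein from a stem cell growth factor screen; measures binding of labelled protein to compounds printed on the slide; score merges feature fluorescence at 667 nm with signal-to-noise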
stated_conditions: small-molecule microarray, higher = more signal
Give composite z-score for every item shown.
Keep it simple and answer with nothing but the number.

Name the recorded composite z-score of the molecule listed here: CCOC(=O)C=Cc1cccc(OC)c1O
-0.212

Name the recorded composite z-score of the molecule listed here: COc1c(C)cc(-c2cc3c(c(-c4ccccc4)n2)[Si](C(C)C)(C(C)C)O[C@H]3c2ccccc2)cc1C
-0.147

Name the recorded composite z-score of the molecule listed here: CCN(CC)c1ccc(N2CC=CC34O[C@@H]5/C=C\CCC(C)OC(=O)C5[C@H]3C(=O)N(CCCCCCO)[C@@H]4C2=O)cc1 (some centres undefined)
-0.223

Name the recorded composite z-score of the molecule listed here: CN(C)CCCC[C@@H]1NC(=O)[C@H]2C[C@@H](C(=O)NCCCCCNC(=O)CS)[C@@H](c3ccc(O)cc3)N2C1=O
-0.0396
